Tested on: Crude diglycosidase
run-description: Examination of pH in the conversion into isoflavone aglycons by diglycosidase using soybean materials
Format: biochemical, Penicillium multicolor IAM7153
experimental-conditions: pH11.6; heat treatment of enzyme: no; reaction time 0 h
Parameter: Decomposition efficiency of daidzin family in soymilk. Scope: all listed entries.
experimental-endpoint: Decomposition efficiency of daidzin family in soymilk (%)

1) O=c1c(-c2ccc(O)cc2)coc2cc(O)ccc12	8.7
2) O=C(O)CC(=O)OC[C@H]1O[C@@H](Oc2ccc3c(=O)c(-c4ccc(O)cc4)coc3c2)[C@H](O)[C@@H](O)[C@@H]1O	52.5
3) O=c1c(-c2ccc(O)cc2)coc2cc(O[C@@H]3O[C@H](CO)[C@@H](O)[C@H](O)[C@H]3O)ccc12	38.8

---

Parameter: Decomposition efficiency of genistin family in defatted soybean. Scope: all listed entries.
Test system: Crude diglycosidase
run-description: Examination of pH in the conversion into isoflavone aglycons by diglycosidase using soybean materials
Format: biochemical, Penicillium multicolor IAM7153
Design: concentration or dose not given beside the values
experimental-conditions: pH4.8; heat treatment of enzyme: yes; reaction time 6 h
experimental-endpoint: Decomposition efficiency of genistin family in defatted soybean (%)

1. O=c1c(-c2ccc(O)cc2)coc2cc(O[C@@H]3O[C@H](CO)[C@@H](O)[C@H](O)[C@H]3O)cc(O)c12 [genistin]	31.8
2. CC(=O)OC[C@H]1O[C@@H](Oc2cc(O)c3c(=O)c(-c4ccc(O)cc4)coc3c2)[C@H](O)[C@@H](O)[C@@H]1O [acetylgenistin, 6″-O-acetylgenistin]	1.3
3. O=c1c(-c2ccc(O)cc2)coc2cc(O)cc(O)c12 [genistein]	25.2
4. O=C(O)CC(=O)OC[C@H]1O[C@@H](Oc2cc(O)c3c(=O)c(-c4ccc(O)cc4)coc3c2)[C@H](O)[C@@H](O)[C@@H]1O [malonylgenistin, 6″-O-malonylgenistin]	41.7

---

Parameter: Decomposition efficiency of genistin family in defatted soybean. Scope: all listed entries.
Tested on: Crude diglycosidase
run-description: Examination of substrate concentration in the conversion into isoflavone aglycons by diglycosidase using soybean materials
Assay type: biochemical, Penicillium multicolor IAM7153
experimental-conditions: substrate concentration 10%, heat treatment of enzyme yes, reaction time 6 h
experimental-endpoint: Decomposition efficiency of genistin family in defatted soybean

1) O=C(O)CC(=O)OC[C@H]1O[C@@H](Oc2cc(O)c3c(=O)c(-c4ccc(O)cc4)coc3c2)[C@H](O)[C@@H](O)[C@@H]1O [malonylgenistin, 6″-O-malonylgenistin]	39.4
2) CC(=O)OC[C@H]1O[C@@H](Oc2cc(O)c3c(=O)c(-c4ccc(O)cc4)coc3c2)[C@H](O)[C@@H](O)[C@@H]1O [acetylgenistin, 6″-O-acetylgenistin]	1.7
3) O=c1c(-c2ccc(O)cc2)coc2cc(O[C@@H]3O[C@H](CO)[C@@H](O)[C@H](O)[C@H]3O)cc(O)c12 [genisitin]	44.3
4) O=c1c(-c2ccc(O)cc2)coc2cc(O)cc(O)c12 [genistein]	14.5

---

System: Crude diglycosidase
run-description: Examination of pH in the conversion into isoflavone aglycons by diglycosidase using soybean materials
Type: biochemical, Penicillium multicolor IAM7153
experimental-conditions: pH3.5; heat treatment of enzyme: no; reaction time 6 h
experimental-endpoint: Decomposition efficiency of daidzin family in soymilk (%)

1) O=C(O)CC(=O)OC[C@H]1O[C@@H](Oc2ccc3c(=O)c(-c4ccc(O)cc4)coc3c2)[C@H](O)[C@@H](O)[C@@H]1O [malonyldaidzin, 6″-O-malonyldaidzin]	7.4
2) O=c1c(-c2ccc(O)cc2)coc2cc(O)ccc12 [daidzein]	92.6

---

Test system: Crude diglycosidase
run-description: Examination of temperature in the conversion into isoflavone aglycons by diglycosidase using soybean materials
Type: biochemical, Penicillium multicolor IAM7153
experimental-conditions: 55° C., heat treatment of enzyme no, reaction time 3 h
experimental-endpoint: Decomposition efficiency of genistin family in defatted soybean (%)

1. O=C(O)CC(=O)OC[C@H]1O[C@@H](Oc2cc(O)c3c(=O)c(-c4ccc(O)cc4)coc3c2)[C@H](O)[C@@H](O)[C@@H]1O	46.1
2. O=c1c(-c2ccc(O)cc2)coc2cc(O)cc(O)c12	53.7
3. O=c1c(-c2ccc(O)cc2)coc2cc(O[C@@H]3O[C@H](CO)[C@@H](O)[C@H](O)[C@H]3O)cc(O)c12	0.0
4. CC(=O)OC[C@H]1O[C@@H](Oc2cc(O)c3c(=O)c(-c4ccc(O)cc4)coc3c2)[C@H](O)[C@@H](O)[C@@H]1O	0.2

---

Test system: Crude diglycosidase
run-description: Examination of temperature in the conversion into isoflavone aglycons by diglycosidase using soybean materials
Type: biochemical, Penicillium multicolor IAM7153
experimental-conditions: 30° C., heat treatment of enzyme no, reaction time 1 h
Parameter: Decomposition efficiency of daidzin family in concentrated soybean protein. Scope: all listed entries.
experimental-endpoint: Decomposition efficiency of daidzin family in concentrated soybean protein

1. CC(=O)OC[C@H]1O[C@@H](Oc2ccc3c(=O)c(-c4ccc(O)cc4)coc3c2)[C@H](O)[C@@H](O)[C@@H]1O	44.4%
2. O=c1c(-c2ccc(O)cc2)coc2cc(O)ccc12	26.2%
3. O=c1c(-c2ccc(O)cc2)coc2cc(O[C@@H]3O[C@H](CO)[C@@H](O)[C@H](O)[C@H]3O)ccc12	29.5%

---

Test system: Crude diglycosidase
run-description: Examination of temperature in the conversion into isoflavone aglycons by diglycosidase using soybean materials
Format: biochemical, Penicillium multicolor IAM7153
experimental-conditions: 55 °C; heat treatment of enzyme: no; 6 h
Description: Into 400 μL of 20 mM acetate buffer of pH 4.0 was suspended 50 mg of each of various soybean materials (roasted soy flour (manufactured by Fuji Shokuryo K.K.), soymilk (manufactured by Gitoh Shokuhin K.K.), defatted soybean (manufactured by Fuji Seiyu K.K.), concentrated soybean protein (manufactured by Fuji Seiyu K.K.)), whereby a substrate solution was prepared. Crude diglycosidase was diluted with 20 mM acetate buffer of pH 4.0 to be the glycosidase activity of 1.88 AU/mL. […]
Parameter: Decomposition efficiency of glycitin family in concentrated soybean protein. Scope: all listed entries.
experimental-endpoint: Decomposition efficiency of glycitin family in concentrated soybean protein (%)

1) COc1cc2c(=O)c(-c3ccc(O)cc3)coc2cc1O[C@@H]1O[C@H](COC(C)=O)[C@@H](O)[C@H](O)[C@H]1O	26.8
2) COc1cc2c(=O)c(-c3ccc(O)cc3)coc2cc1O[C@@H]1O[C@H](COC(=O)CC(=O)O)[C@@H](O)[C@H](O)[C@H]1O	0.5
3) COc1cc2c(=O)c(-c3ccc(O)cc3)coc2cc1O	72.7

---

Test system: Crude diglycosidase
run-description: Examination of substrate concentration in the conversion into isoflavone aglycons by diglycosidase using soybean materials
Type: biochemical, Penicillium multicolor IAM7153
experimental-conditions: substrate concentration 5%, heat treatment of enzyme no, reaction time 1 h
experimental-endpoint: Decomposition efficiency of genistin family in defatted soybean

1) O=c1c(-c2ccc(O)cc2)coc2cc(O)cc(O)c12	61.2
2) CC(=O)OC[C@H]1O[C@@H](Oc2cc(O)c3c(=O)c(-c4ccc(O)cc4)coc3c2)[C@H](O)[C@@H](O)[C@@H]1O	0.8
3) O=C(O)CC(=O)OC[C@H]1O[C@@H](Oc2cc(O)c3c(=O)c(-c4ccc(O)cc4)coc3c2)[C@H](O)[C@@H](O)[C@@H]1O	38.0

---

System: Crude diglycosidase
run-description: Examination of substrate concentration in the conversion into isoflavone aglycons by diglycosidase using soybean materials;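 on Decomposition efficiency: ratio of each glycoside/aglycon within its isoflavone family: percent of the isoflavone family total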
Format: biochemical, Penicillium multicolor IAM7153
experimental-conditions: roasted soy flour, substrate concentration 20%, heat treatment of enzyme no, reaction time 6 h
experimental-endpoint: Decomposition efficiency: ratio of each glycoside/aglycon within its isoflavone family (%)

1) CC(=O)OC[C@H]1O[C@@H](Oc2cc(O)c3c(=O)c(-c4ccc(O)cc4)coc3c2)[C@H](O)[C@@H](O)[C@@H]1O [acetylgenistin, 6″-O-acetylgenistin]	28.6
2) COc1cc2c(=O)c(-c3ccc(O)cc3)coc2cc1O[C@@H]1O[C@H](COC(C)=O)[C@@H](O)[C@H](O)[C@H]1O [acetylglycitin, 6″-O-acetylglycitin]	10.0

---

Tested on: Crude diglycosidase
run-description: Examination of temperature in the conversion into isoflavone aglycons by diglycosidase using soybean materials
Format: biochemical, Penicillium multicolor IAM7153
Design: concentration or dose not given beside the values
experimental-conditions: 55 °C; heat treatment of enzyme: yes; 6 h
experimental-endpoint: Decomposition efficiency of daidzin family in roasted soy flour (%)

1. O=c1c(-c2ccc(O)cc2)coc2cc(O)ccc12	5.3
2. CC(=O)OC[C@H]1O[C@@H](Oc2ccc3c(=O)c(-c4ccc(O)cc4)coc3c2)[C@H](O)[C@@H](O)[C@@H]1O	43.6
3. O=c1c(-c2ccc(O)cc2)coc2cc(O[C@@H]3O[C@H](CO)[C@@H](O)[C@H](O)[C@H]3O)ccc12	51.1

---

System: Crude diglycosidase
run-description: Examination of pH in the conversion into isoflavone aglycons by diglycosidase using soybean materials
Type: biochemical, Penicillium multicolor IAM7153
experimental-conditions: pH1.6; heat treatment of enzyme: yes; reaction time 6 h
experimental-endpoint: Decomposition efficiency of daidzin family in concentrated soybean protein (%)

1. O=c1c(-c2ccc(O)cc2)coc2cc(O[C@@H]3O[C@H](CO)[C@@H](O)[C@H](O)[C@H]3O)ccc12	59.0
2. CC(=O)OC[C@H]1O[C@@H](Oc2ccc3c(=O)c(-c4ccc(O)cc4)coc3c2)[C@H](O)[C@@H](O)[C@@H]1O	38.1
3. O=c1c(-c2ccc(O)cc2)coc2cc(O)ccc12	2.9
